// provenance: ChEMBL document CHEMBL4619756

tested target: Kappa-type opioid receptor (Homo sapiens, UniProt P41145)
Sequence (P41145 whole entry): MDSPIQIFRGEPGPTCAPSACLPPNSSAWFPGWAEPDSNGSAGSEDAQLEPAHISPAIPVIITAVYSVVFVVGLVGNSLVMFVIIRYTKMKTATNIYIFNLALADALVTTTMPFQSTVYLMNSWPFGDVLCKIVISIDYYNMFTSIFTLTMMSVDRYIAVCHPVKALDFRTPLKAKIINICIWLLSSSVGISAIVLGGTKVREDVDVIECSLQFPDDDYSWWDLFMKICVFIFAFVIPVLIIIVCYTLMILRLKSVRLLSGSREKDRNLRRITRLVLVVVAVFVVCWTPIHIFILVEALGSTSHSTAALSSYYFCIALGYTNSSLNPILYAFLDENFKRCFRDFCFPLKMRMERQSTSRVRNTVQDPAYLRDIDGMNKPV
procedure details: Displacement of [3H]-U69593 from human kappa opiod receptor expressed in CHO cells at 10 uM incubated for 60 mins by liquid scintillation counting method relative to control
Type: cell-based
Class membership depends on inhibition alone; the intervals are bottom range: < 40%; center range: ≥ 40% and < 80%; top range: ≥ 80%

compound="COc1cccc(C2CCCN2Cc2ccc(Oc3ccc4c(=O)[nH]oc4c3Cl)cc2)c1 (stereo not given)" tested_target="Kappa-type opioid receptor (Homo sapiens, UniProt P41145)" class_label="bottom range"
compound="Cc1cc(C)cc(C2CCCN2Cc2ccc(Oc3ccc4c(=O)[nH]oc4c3F)c(Cl)c2)c1 (stereo not given)" tested_target="Kappa-type opioid receptor (Homo sapiens, UniProt P41145)" class_label="center range"
compound="Cc1cc(C)cc(C2CCCN2Cc2ccc(Oc3ccc4c(=O)[nH]oc4c3)cc2)c1 (stereo not given)" tested_target="Kappa-type opioid receptor (Homo sapiens, UniProt P41145)" class_label="top range"
compound="O=c1[nH]oc2c(Cl)c(Oc3ccc(CN4CCCC4c4cccc(F)c4)cc3)ccc12 (stereo not given)" tested_target="Kappa-type opioid receptor (Homo sapiens, UniProt P41145)" class_label="bottom range"
compound="O=c1[nH]oc2c(Cl)c(Oc3ccc(CN4CCCC4c4ccc(Cl)cc4)cc3)ccc12 (stereo not given)" tested_target="Kappa-type opioid receptor (Homo sapiens, UniProt P41145)" class_label="bottom range"
compound="COc1cc(CN2CCCC2c2cc(C)cc(C)c2)ccc1Oc1ccc2c(=O)[nH]oc2c1 (stereo not given)" tested_target="Kappa-type opioid receptor (Homo sapiens, UniProt P41145)" class_label="center range"
compound="COc1ccc(C2CCCN2Cc2ccc(Oc3ccc(C(=O)NO)cc3F)cc2)cc1 (stereo not given)" tested_target="Kappa-type opioid receptor (Homo sapiens, UniProt P41145)" class_label="center range"
compound="O=C(NO)c1ccc(Oc2ccc(CN3CCCC3c3ccccc3)cc2)cc1 (stereo not given)" tested_target="Kappa-type opioid receptor (Homo sapiens, UniProt P41145)" class_label="top range"
